Reported MIC values for the following compounds.
Tested on: Staphylococcus aureus
Assay: Antibacterial activity against methicillin- and quinolone-resistant Staphylococcus aureus ATCC700699 after 24 hrs by microdilution method
Format: functional
Conditions: ATCC700699, 24 h
Write down the numeric answer in µg/mL and omit the unit.

INSERT INTO assay_data (compound, valuemeasured) VALUES
  ('COc1c(N2CC[C@@H](N)C2)c(F)cc2c(=O)c3c(=O)[nH]sc3n(C3CC3)c12', 2);

Record CNC(C)[C@H]1CCN(c2c(F)cc3c(=O)c4c(=O)[nH]sc4n(C4CC4)c3c2OC)C1 (mixture of isomers) , field MIC: 2

Record `COc1c(N2CC[C@@H]([C@@H](C)N)C2)c(F)cc2c(=O)c3c(=O)[nH]sc3n(C3CC3)c12` , field MIC: 0.25

Record CCNC(C)[C@@H]1CCN(c2c(F)cc3c(=O)c4c(=O)[nH]sc4n(C4CC4)c3c2OC)C1 (mixture of isomers) , field MIC: 0.25
